molecular target: ABHD6 (Mus musculus (Mouse), UniProt Q8R2Y0); assay: In vitro competitive activity-based protein profiling (mouse brain membrane fraction or cell lysates), ABHD6 band; assay type: biochemical; conditions: 1 μM, mouse; read-out: ABHD6 % Inh 1 μM (mouse)
Sequence (Q8R2Y0 whole entry): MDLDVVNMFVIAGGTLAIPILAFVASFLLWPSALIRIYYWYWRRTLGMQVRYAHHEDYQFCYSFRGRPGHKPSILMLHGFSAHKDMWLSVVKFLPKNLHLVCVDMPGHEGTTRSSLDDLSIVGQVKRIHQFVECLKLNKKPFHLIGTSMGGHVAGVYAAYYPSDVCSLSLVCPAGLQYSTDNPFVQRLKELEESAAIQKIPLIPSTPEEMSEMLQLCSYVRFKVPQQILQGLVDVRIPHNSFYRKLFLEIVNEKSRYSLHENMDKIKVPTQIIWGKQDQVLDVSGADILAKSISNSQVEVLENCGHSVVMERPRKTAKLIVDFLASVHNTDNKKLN
Reported inhibition at 1 µM by item:

Field: example entries. Status: answers known.
[[record]]
compound = "O=C(O)C1CCCCN1c1cc(CN2CCC3(CCN(C(=O)OC(C(F)(F)F)C(F)(F)F)CC3)C2)cc(C(F)(F)F)c1 (stereo not shown)"
assay_endpoint = "inhibition at 1 µM"
reported_result = "< 25%"

[[record]]
compound = "CC1(C(=O)O)CCN(c2cc(CN3CCC4(CCN(C(=O)OC(C(F)(F)F)C(F)(F)F)CC4)C3)cc(C(F)(F)F)c2)C1 (stereo not shown)"
assay_endpoint = "inhibition at 1 µM"
reported_result = "≥ 75%"

[[record]]
compound = "O=C(O)C1CCN(c2cc(S(F)(F)(F)(F)F)ccc2CN2CCCC23CCN(C(=O)OC(C(F)(F)F)C(F)(F)F)CC3)CC1"
assay_endpoint = "inhibition at 1 µM"
reported_result = "< 25%"


Lookup: Respond only with inhibition at 1 µM recorded for O=C(O)C1CCN(Cc2cc(CN3CCCC34CCN(C(=O)OC(C(F)(F)F)C(F)(F)F)CC4)cc(OC(F)(F)F)c2)C1 (stereo not shown)
Found: < 25%

Lookup: Please supply the value of reported inhibition at 1 µM for the item "O=C(O)C1CCN(Cc2cc(C(F)(F)F)ccc2CN2CCC3(CCN(C(=O)OC(C(F)(F)F)C(F)(F)F)CC3)C2)CC1"
Found: < 25%

Lookup: Answer with the recorded inhibition at 1 µM for the compound listed here: "CS(=O)(=O)C1CCN(c2cc(C(F)(F)F)ccc2CN2CCCC23CCN(C(=O)OC(C(F)(F)F)C(F)(F)F)CC3)CC1"
Found: ≥ 75%

====

Reported pIC50 values for a set of molecules
target: MAGL (Mus musculus (Mouse), UniProt O35678); experiment: In vitro competitive activity-based protein profiling (mouse brain membrane fraction or cell lysates), MAGL band; assay type: biochemical; settings: mouse proteome, competitive ABPP
Sequence (O35678 whole entry): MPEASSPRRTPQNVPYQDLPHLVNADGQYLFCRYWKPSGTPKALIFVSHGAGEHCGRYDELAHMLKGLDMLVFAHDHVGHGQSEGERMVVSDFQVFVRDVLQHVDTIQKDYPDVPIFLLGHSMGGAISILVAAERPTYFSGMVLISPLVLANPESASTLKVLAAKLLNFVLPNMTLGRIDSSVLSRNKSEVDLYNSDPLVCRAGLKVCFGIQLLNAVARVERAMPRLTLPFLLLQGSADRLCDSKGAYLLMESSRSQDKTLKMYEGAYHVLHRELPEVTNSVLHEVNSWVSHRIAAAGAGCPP
pIC50: −log10 of the molar value.

In the examples that follow, each entry is paired with its recorded pIC50.
[[record]]
molecule = "O=C(OC(C(F)(F)F)C(F)(F)F)N1CCC2(CCCN2Cc2cc(OC3CCOCC3)cc(C(F)(F)F)c2)CC1"
target_entity = "MAGL (Mus musculus (Mouse), UniProt O35678)"
assay_endpoint = "pIC50"
reported_result = "> 7.00"

[[record]]
molecule = "O=C(OC(C(F)(F)F)C(F)(F)F)N1CCC2(CCN(Cc3ccc(Cl)cc3N3CCOCC3)C2)CC1"
target_entity = "MAGL (Mus musculus (Mouse), UniProt O35678)"
assay_endpoint = "pIC50"
reported_result = "> 7.00"

[[record]]
molecule = "O=C(OC(C(F)(F)F)C(F)(F)F)N1CCC2(CCCN2Cc2ccc(C(F)(F)F)cc2Oc2nc3ccccc3s2)CC1"
target_entity = "MAGL (Mus musculus (Mouse), UniProt O35678)"
assay_endpoint = "pIC50"
reported_result = "6.00 to 7.00"

[[record]]
molecule = "O=C(OC(C(F)(F)F)C(F)(F)F)N1CCC2(CCCN2Cc2ccc(C(F)(F)F)cc2Oc2cccnc2)CC1"
target_entity = "MAGL (Mus musculus (Mouse), UniProt O35678)"
assay_endpoint = "pIC50"
reported_result = "> 7.00"

[[record]]
molecule = "Cc1c(CN2CCCC23CCN(C(=O)OC(C(F)(F)F)C(F)(F)F)CC3)cccc1N1CCCCC1"
target_entity = "MAGL (Mus musculus (Mouse), UniProt O35678)"
assay_endpoint = "pIC50"
reported_result = "6.00 to 7.00"

[[record]]
molecule = "O=C(OC(C(F)(F)F)C(F)(F)F)N1CCC2(CCCN2Cc2cc(N3CC4COCC4C3)cc(C(F)(F)F)c2)CC1 (stereo not drawn)"
target_entity = "MAGL (Mus musculus (Mouse), UniProt O35678)"
assay_endpoint = "pIC50"
reported_result = "> 7.00"

[[record]]
molecule = "O=C(OC(C(F)(F)F)C(F)(F)F)N1CCC2(CCCN2Cc2cc(Cl)cc(N3CC4COCC4C3)c2)CC1 (stereo not drawn)"
target_entity = "MAGL (Mus musculus (Mouse), UniProt O35678)"
assay_endpoint = "pIC50"
reported_result = "> 7.00"

[[record]]
molecule = "O=C(OC(C(F)(F)F)C(F)(F)F)N1CCC2(CCCN2Cc2ccc(N3CCOCC3)c(C(F)(F)F)c2)CC1"
target_entity = "MAGL (Mus musculus (Mouse), UniProt O35678)"
assay_endpoint = "pIC50"
reported_result = "> 7.00"

[[record]]
molecule = "O=C(O)C1CN(c2cc(C(F)(F)F)ccc2CN2CCCC23CCN(C(=O)OC(C(F)(F)F)C(F)(F)F)CC3)CCO1 (stereo not drawn)"
target_entity = "MAGL (Mus musculus (Mouse), UniProt O35678)"
assay_endpoint = "pIC50"
reported_result = "6.00 to 7.00"

[[record]]
molecule = "O=C(OC(C(F)(F)F)C(F)(F)F)N1CCC2(CCCN2Cc2ccccc2Cl)CC1"
target_entity = "MAGL (Mus musculus (Mouse), UniProt O35678)"
assay_endpoint = "pIC50"
reported_result = "> 7.00"


Lookup: Identify measured pIC50 corresponding to "O=C(OC(C(F)(F)F)C(F)(F)F)N1CCC2(CCCN2Cc2ccc(Cl)cc2N2CCOCC2)CC1"
Found: > 7.00

Lookup: Output measured pIC50 for this item: "CC1(C)CC2(CCN(C(=O)OC(C(F)(F)F)C(F)(F)F)CC2)CN1Cc1c(N2CCC3(CCOCC3)C2)cccc1C(F)(F)F"
Found: 6.00 to 7.00

Lookup: Look up pIC50 of "CN1CCC(Oc2cc(CN3CCCC34CCN(C(=O)OC(C(F)(F)F)C(F)(F)F)CC4)cc(C(F)(F)F)c2)CC1" and report it.
Found: > 7.00

Lookup: Identify measured pIC50 corresponding to "O=C(OC(C(F)(F)F)C(F)(F)F)N1CCC2(CCN(Cc3cccc(Cl)c3N3CCC(F)CC3)C2)CC1"
Found: > 7.00

Lookup: Specify reported pIC50 for the molecule shown: "CCOc1ccccc1CN1CCCC12CCN(C(=O)OC(C(F)(F)F)C(F)(F)F)CC2"
Found: 6.00 to 7.00

====

Biological target: MAGL (Mus musculus (Mouse), UniProt O35678)
Assay: Mouse brain proteomes from inhibitor treated mice (oral gavage, sacrificed 4 h after administration, ABPP analysis)
Type: in vivo, mouse (C57Bl/6J)
Settings: 5 mg/kg oral gavage
Procedure: Preparation of Mouse Brain Proteomes from Inhibitor Treated Mice. Inhibitors were administered to wild-type C57Bl/6J by oral gavage in a vehicle, e.g. PEG400/Ethanol/PBS (7/2/1). Each animal was sacrificed 4 h following administration and brain proteomes were prepared and analyzed according to previously established methods (See Niphakis, M. J., et al. (2011) ACS Chem. Neurosci. and Long, J. Z., et al. Nat. Chem. Biol. 5:37-44). Data from this assay is shown in Table 2 (% inhibition at 5 mg/kg).
ASSAY_ENDPOINT: MAGL % Inh 5 mg/kg (mouse)

[[record]]
compound = "O=C(OC(C(F)(F)F)C(F)(F)F)N1CCC2(CCCN2Cc2ccc(C(F)(F)F)c(Cl)c2)CC1"
target_entity = "MAGL (Mus musculus (Mouse), UniProt O35678)"
assay_endpoint = "MAGL % Inh 5 mg/kg (mouse)"
reported_result = "### (### is ≥75%)"

[[record]]
compound = "CC1(C)CC2(CCN(C(=O)OC(C(F)(F)F)C(F)(F)F)CC2)CN1Cc1ccc(C(F)(F)F)cc1N1CCC2(CCOCC2)C1"
target_entity = "MAGL (Mus musculus (Mouse), UniProt O35678)"
assay_endpoint = "MAGL % Inh 5 mg/kg (mouse)"
reported_result = "# (# is <25%)"

[[record]]
compound = "O=C(O)C1CCN(c2cc(Cl)ccc2CN2CCCC23CCN(C(=O)OC(C(F)(F)F)C(F)(F)F)CC3)CC1"
target_entity = "MAGL (Mus musculus (Mouse), UniProt O35678)"
assay_endpoint = "MAGL % Inh 5 mg/kg (mouse)"
reported_result = "### (### is ≥75%)"

[[record]]
compound = "O=C(OC(C(F)(F)F)C(F)(F)F)N1CCC2(CCCN2Cc2ccc(Cl)cc2N2CC3COCC3C2)CC1 (stereo not shown)"
target_entity = "MAGL (Mus musculus (Mouse), UniProt O35678)"
assay_endpoint = "MAGL % Inh 5 mg/kg (mouse)"
reported_result = "### (### is ≥75%)"


Turning now to a further compound:
Lookup: Please report the measured MAGL % Inh 5 mg/kg (mouse) for CC1(C(=O)O)CN(c2cc(CN3CCCC34CCN(C(=O)OC(C(F)(F)F)C(F)(F)F)CC4)cc(C(F)(F)F)c2)CCO1 (stereo not shown)
Found: # (# is <25%)

Origin of values: patent US10030020B2
